Assay: log P determination by HPLC on reverse-phase column (EEC Directive 79/831 Annex V.A8)
Type: physicochemical
property: logP
// return a plain number; no unit text

Example entries and their recorded answers appear below.
[[record]]
molecule = "CC(C)NC(=O)c1cc(Cl)cc(Cl)c1NC(=O)c1cc(Cn2cnc(C(F)(F)C(F)(F)F)n2)nn1-c1ncccc1Cl [I-1-327]"
numeric_result = 2.97

[[record]]
molecule = "CSCC(C)NC(=O)c1cc(C#N)cc(C)c1NC(=O)c1cc(Cn2cc(Cl)c(C(F)(F)C(F)(F)F)n2)nn1-c1ncccc1Cl (stereo not shown) [I-1-209]"
numeric_result = 4.05

[[record]]
molecule = "Cc1cc(F)cc(C(=O)NC(C)C)c1NC(=O)c1cc(Cn2nc(C(F)(F)F)cc2C(F)(F)F)nn1-c1ncccc1Cl [I-1-225]"
numeric_result = 3.77


Challenge: Query: logP; subject: Cc1cc(C#N)cc(C(N)=O)c1NC(=O)c1cc(Cn2cc(C(F)(F)C(F)(F)F)c(C(F)(F)C(F)(F)F)n2)nn1-c1ncccc1Cl [I-1-192]
Response given: 3.91

Challenge: Query: logP; subject: CNC(=O)c1cc(Cl)cc(Cl)c1NC(=O)c1cc(Cn2cc(Cl)c(C(F)(F)C(F)(F)F)n2)nn1-c1ncccc1Cl [I-1-308]
Response given: 3.18

Challenge: Query: logP; subject: Cc1cc(C#N)cc(C(=O)NC(C)CS(C)(=O)=O)c1NC(=O)c1cc(Cn2cc(Cl)c(C(F)(F)C(F)(F)F)n2)nn1-c1ncccc1Cl (stereo not shown) [I-1-210]
Response given: 3.34

Challenge: Query: logP; subject: Cc1cc(I)cc(C(=O)NCC2CC2)c1NC(=O)c1cc(Cn2cc(Cl)c(C(F)(F)C(F)(F)F)n2)nn1-c1ncccc1Cl [I-1-254]
Response given: 4.47

---

Assay: log P determination by HPLC on reverse-phase column (EEC Directive 79/831 Annex V.A8)
Assay type: physicochemical
Quick rule for you: logP under 3 gets Condition met, anything else gets Condition not met.

[[record]]
molecule = "CNC(=O)c1cc(F)cc(C)c1NC(=O)c1cc(Cn2nc(C(F)(F)F)nc2C(F)(F)F)nn1-c1ncccc1Cl"
answer_label = "Condition not met"

[[record]]
molecule = "CNC(=O)c1cc(C#N)cc(C)c1NC(=O)c1cc(Cn2nc(C(F)(F)F)cc2C(F)(F)F)nn1-c1ncccc1Cl"
answer_label = "Condition not met"


Turning to the following molecule.
Challenge: hey, is logP for Cc1cc(Cl)cc(C(=O)NC(C)C)c1NC(=O)c1cc(Cn2cnc(C(F)(F)C(F)(F)F)n2)nn1-c1ncccc1Cl [I-1-334] lower than 3 or not?
Response given: Condition met

---

This section presents molecules with their documented logP values.
Experiment: log P determination by HPLC on reverse-phase column (EEC Directive 79/831 Annex V.A8)
Format: physicochemical
Conditions: HPLC on reverse-phase column
// return a plain number; no unit text

Example entries and their recorded answers appear below.
[[record]]
mol = "Cc1cc(Cl)cc(C(=O)NCC#N)c1NC(=O)c1cc(Cn2cc(C(F)(F)C(F)(F)F)c(C(F)(F)C(F)(F)F)n2)nn1-c1ncccc1Cl"
numeric_result = 4.31

[[record]]
mol = "Cc1cc(Br)cc(C(=O)NC2CC2)c1NC(=O)c1cc(Cn2cc(Cl)c(C(F)(F)C(F)(F)F)n2)nn1-c1ncccc1Cl"
numeric_result = 4.14

[[record]]
mol = "CNC(=O)c1cc(Cl)cc(C)c1NC(=O)c1cc(Cn2nnc(-c3ccc(Cl)nc3)n2)nn1-c1ncccc1Cl"
numeric_result = 2.91


Challenge: Query: logP; subject: CNC(=O)c1cc(Cl)cc(C)c1NC(=O)c1cc(Cn2nnn(-c3ccc(C(F)(F)F)cc3)c2=O)nn1-c1ncccc1Cl
Response given: 3.61

Challenge: Query: logP; subject: Cc1cc(Br)cc(C(=O)NCC#N)c1NC(=O)c1cc(Cn2cc(Br)c(C(F)(F)F)n2)nn1-c1ncccc1Cl
Response given: 3.45

Challenge: Query: logP; subject: Cc1cc(Br)cc(C(N)=O)c1NC(=O)c1cc(Cn2cc(Cl)c(C(F)(F)C(F)(F)F)n2)nn1-c1ncccc1Cl
Response given: 3.68

Challenge: Query: logP; subject: CNC(=O)c1cc(Br)cc(C)c1NC(=O)c1cc(Cn2cc(Br)c(C(F)(F)F)n2)nn1-c1ncccc1Cl
Response given: 3.46

Challenge: Query: logP; subject: CNC(=O)c1cc(Cl)cc(C)c1NC(=O)c1cc(Cn2nc(C(F)(F)F)n(-c3ccccc3)c2=O)nn1-c1ncccc1Cl
Response given: 3.10

Challenge: Query: logP; subject: CNC(=O)c1cc(Cl)cc(C)c1NC(=O)c1cc(Cn2cc(Cl)c(C(F)(F)C(F)(F)F)n2)nn1-c1ncccc1Cl
Response given: 3.77

Challenge: Query: logP; subject: CNC(=O)c1cc(Cl)cc(C)c1NC(=O)c1cc(Cn2ccc(C(F)(F)F)n2)nn1-c1ncccc1Cl
Response given: 2.92

Challenge: Query: logP; subject: Cc1cc(Br)cc(C(=O)NC2CC2)c1NC(=O)c1cc(Cn2cc(C(F)(F)C(F)(F)F)c(C(F)(F)C(F)(F)F)n2)nn1-c1ncccc1Cl
Response given: 4.59

---

Test: log P determination by HPLC on reverse-phase column (EEC Directive 79/831 Annex V.A8)
Assay type: physicochemical
Conditions: HPLC on reverse-phase column
property: logP
// return a plain number; no unit text

[[record]]
mol = "Cc1cc(Br)cc(C(=O)NC(C)C)c1NC(=O)c1cc(Cn2nc(C(F)(F)F)nc2C(F)(F)F)nn1-c1ncccc1Cl"
numeric_result = 3.91


Challenge: Query: logP; subject: CNC(=O)c1cc(Cl)cc(C)c1NC(=O)c1cc(Cn2nnn(-c3ccc(C(F)(F)F)c(Cl)c3)c2=O)nn1-c1ncccc1Cl
Response given: 3.90

Challenge: Query: logP; subject: CSC[C@H](C)NC(=O)c1cc(Cl)cc(C)c1NC(=O)c1cc(Cn2cc(Br)c(C(F)(F)F)n2)nn1-c1ncccc1Cl
Response given: 4.11

Challenge: Query: logP; subject: Cc1cc(Cl)cc(C(=O)NC(C)C)c1NC(=O)c1cc(Cn2nc(C(F)(F)F)cc2C(F)(F)F)nn1-c1ncccc1Cl
Response given: 4.08

---

Test: log P determination by HPLC on reverse-phase column (EEC Directive 79/831 Annex V.A8)
Format: physicochemical
Returns Met if the recorded logP is greater than or equal to 3, and Not met otherwise.

The following molecules have reported results that may help.
[[record]]
molecule = "N#CCNC(=O)c1cc(Cl)cc(Cl)c1NC(=O)c1cc(Cc2cncnc2)nn1-c1ncccc1Cl"
answer_label = "Not met"

[[record]]
molecule = "CCNC(=O)c1cc(I)cc(C)c1NC(=O)c1cc(Cn2nc(C(F)(F)F)nc2C(F)(F)F)nn1-c1ncccc1Cl [I-1-244]"
answer_label = "Met"

[[record]]
molecule = "Cc1cc(Cl)cc(C(=O)NC(C)C)c1NC(=O)c1cc(Cn2nc(C)c(Br)c2C)nn1-c1ncccc1Cl"
answer_label = "Met"

[[record]]
molecule = "Cc1cc(Cl)cc(C(N)=O)c1NC(=O)c1cc(Cn2cnc(C(F)(F)C(F)(F)F)n2)nn1-c1ncccc1Cl [I-1-330]"
answer_label = "Not met"

[[record]]
molecule = "Cc1cc(I)cc(C(=O)NC2CC2)c1NC(=O)c1cc(Cn2ccc(C(F)(F)F)n2)nn1-c1ncccc1Cl"
answer_label = "Met"

[[record]]
molecule = "CCNC(=O)c1cc(I)cc(C)c1NC(=O)c1cc(Cn2nc(C(F)(F)F)cc2C(F)(F)F)nn1-c1ncccc1Cl"
answer_label = "Met"

[[record]]
molecule = "CNC(=O)c1cc(Cl)cc(Cl)c1NC(=O)c1cc(Cc2cncnc2)nn1-c1ncccc1Cl"
answer_label = "Not met"


Turning to the following molecule.
Challenge: Evaluate CC(C)NC(=O)c1cc(Cl)cc(Cl)c1NC(=O)c1cc(Cn2cc(Cl)c(C(F)(F)C(F)(F)F)n2)nn1-c1ncccc1Cl : logP at minimum 3?
Response given: Met

---

Experiment: log P determination by HPLC on reverse-phase column (EEC Directive 79/831 Annex V.A8)
Assay type: physicochemical
property: logP
// return a plain number; no unit text

Example entries and their recorded answers appear below.
[[record]]
compound = "Cc1cc(C#N)cc(C(N)=O)c1NC(=O)c1cc(Cn2nc(C(F)(F)F)cc2C(F)(F)F)nn1-c1ncccc1Cl"
numeric_result = 3.15

[[record]]
compound = "Cc1cc(F)cc(C(=O)NC(C)C[S+](C)[O-])c1NC(=O)c1cc(Cn2cc(Cl)c(C(F)(F)C(F)(F)F)n2)nn1-c1ncccc1Cl (centres unmarked)"
numeric_result = 3.03

[[record]]
compound = "Cc1cc(F)cc(C(=O)NC(C)C)c1NC(=O)c1cc(Cn2cc(Cl)c(C(F)(F)C(F)(F)F)n2)nn1-c1ncccc1Cl"
numeric_result = 3.89

[[record]]
compound = "Cc1cc(C#N)cc(C(=O)NC2CC2)c1NC(=O)c1cc(Cn2ccc(C(F)(F)F)n2)nn1-c1ncccc1Cl"
numeric_result = 2.75


Let us move to another entry and its logP.
Challenge: Query: logP; subject: CNC(=O)c1cc(Cl)cc(Cl)c1NC(=O)c1cc(Cc2ccoc2)nn1-c1ncccc1Cl
Response given: 2.18
